Here, each record is paired with measured thermal shift delta Tm data.
# System: LOC_OS01G57100-cb003
# measurement_description: thermal shift delta Tm vs DMSO control; higher = stronger stabilization (binding);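 note: purified Escherichia coli-expressed rice kinase domain construct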
# particulars: 12.5 µM; protein concentration 2 µM
Where a name gives a salt, the structure may show the parent alone.
// units = °C; emit number, no label

[
  {
    "compound": "CN1CC[C@H](c2c(O)cc(O)c3c(=O)cc(-c4ccccc4Cl)oc23)[C@H](O)C1 [Flavopiridol HCl]",
    "unit_symbol": "°C",
    "recorded_number": 1.91
  },
  {
    "compound": "CC#CC(=O)N1CCC[C@H]1c1nc(-c2ccc(C(=O)Nc3ccccn3)cc2)c2c(N)nccn12",
    "unit_symbol": "°C",
    "recorded_number": 0.82
  }
]

I'd like to know its thermal shift delta Tm. The compound in question is CN1CCN(c2ccc3nc(-c4c(N)c5c(F)cccc5[nH]c4=O)[nH]c3c2)CC1 [Dovitinib (TKI-258) Dilactic Acid] 1.5

I'd like to know its thermal shift delta Tm. The compound in question is COc1cc(Nc2ncc(F)c(Nc3ccc4c(n3)NC(=O)C(C)(C)O4)n2)cc(OC)c1OC 4.83

---

# Test system: LOC_OS02G54510-cb004
# measurement_description: thermal shift delta Tm vs DMSO control; higher = stronger stabilization (binding)
# particulars: 12.5 µM; protein concentration 2 µM
Here, each record is paired with measured thermal shift delta Tm data.
// units = °C; emit number, no label

[
  {
    "smiles": "O=c1ccc2ccc(O)c(O)c2o1",
    "thermal shift delta Tm (°C)": 0.54
  }
]

I'd like to know its thermal shift delta Tm. The molecule in question is COc1cc2ncnc(Sc3nnc(C)s3)c2cc1OC 0.34

I'd like to know its thermal shift delta Tm. The molecule in question is Cn1cc(-c2cnn3c(N)c(Br)c([C@@H]4CCCNC4)nc23)cn1 0.55

I'd like to know its thermal shift delta Tm. The molecule in question is COCCOc1ccc2c(c1)ncn2-c1ccc2cccc(N3CCC(N)CC3)c2n1 0.43

I'd like to know its thermal shift delta Tm. The molecule in question is C#Cc1cccc(Nc2ncnc3cc(OCCOC)c(OCCOC)cc23)c1 0.7

I'd like to know its thermal shift delta Tm. The molecule in question is Cc1ccc(CNc2ncnc3ccc(-c4ccc(CO)o4)cc23)o1 0.02

---

# Tested on: LOC_OS01G52050-cb004
# Sequence (whole entry): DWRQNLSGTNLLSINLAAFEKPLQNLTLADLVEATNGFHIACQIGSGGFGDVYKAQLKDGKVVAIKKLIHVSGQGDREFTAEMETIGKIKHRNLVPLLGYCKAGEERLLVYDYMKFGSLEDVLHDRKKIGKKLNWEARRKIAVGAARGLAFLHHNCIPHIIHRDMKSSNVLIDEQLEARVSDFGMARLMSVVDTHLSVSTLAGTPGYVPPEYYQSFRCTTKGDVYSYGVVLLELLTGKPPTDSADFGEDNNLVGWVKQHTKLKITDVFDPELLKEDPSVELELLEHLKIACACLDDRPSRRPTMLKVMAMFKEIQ
# measurement_description: thermal shift delta Tm vs DMSO control; higher = stronger stabilization (binding)
# particulars: 12.5 µM; protein concentration 2 µM
measured_property: thermal shift delta Tm (°C)
// units = °C; emit number, no label

[
  {
    "molecule": "Cn1cc(-c2ccc3c(c2)CCN3C(=O)Cc2cccc(C(F)(F)F)c2)c2c(N)ncnc21",
    "recorded_number": 2.35
  },
  {
    "molecule": "N#CC1(c2ccc(NC(=O)c3cccnc3NCc3ccncc3)cc2)CCCC1",
    "recorded_number": 0.12
  },
  {
    "molecule": "C[S+]([O-])c1ccc(-c2nc(-c3ccc(F)cc3)c(-c3ccncc3)[nH]2)cc1 (centres undefined)",
    "recorded_number": 0.5
  },
  {
    "molecule": "COc1cc2c(Oc3ccc4[nH]c(C)cc4c3F)ncnc2cc1OCCCN1CCCC1",
    "recorded_number": 0.09
  },
  {
    "molecule": "C[C@@H](Oc1cc(-n2cnc3ccc(CN4CCN(C)CC4)cc32)sc1C(N)=O)c1ccccc1C(F)(F)F",
    "recorded_number": 0.53
  }
]

I'd like to know its thermal shift delta Tm. The molecule in question is COc1cc(-c2cc(-c3ccc(N4CCNCC4)cc3)cnc2C)cc(OC)c1OC 0.04

I'd like to know its thermal shift delta Tm. The molecule in question is COc1ccc(Cl)c(Nc2nc3ccccc3nc2NS(=O)(=O)c2cccc(NC(=O)C(C)(C)N)c2)c1 4.64

I'd like to know its thermal shift delta Tm. The molecule in question is CCN(C)S(=O)(=O)Nc1ccc(F)c(C(=O)c2c[nH]c3ncc(-c4cnc(C5CC5)nc4)cc23)c1F 0.72

I'd like to know its thermal shift delta Tm. The molecule in question is Cc1ccc2nc(NCCN)c3ncc(C)n3c2c1 0.5

---

Here, each record is paired with measured thermal shift delta Tm data.
# System: LOC_OS01G14860-cb001
# measurement_description: thermal shift delta Tm vs DMSO control; higher = stronger stabilization (binding)
# particulars: 12.5 µM; protein concentration 2 µM
Where a name gives a salt, the structure may show the parent alone.
// units = °C; emit number, no label

Some solved entries appear below for comparison.
[
  {
    "molecule": "Cc1nc(-c2cn3c(n2)-c2ccc(-c4cnn(C(C)(C)C(N)=O)c4)cc2OCC3)n(C(C)C)n1 [Taselisib (GDC 0032)]",
    "tgt": "LOC_OS01G14860-cb001",
    "thermal shift delta Tm [°C]": -0.05
  },
  {
    "molecule": "CN1CCN(c2ccc(OC(F)(F)F)c(Nc3ncc4c(n3)-c3c(c(C(N)=O)nn3CCO)CC4)c2)CC1",
    "tgt": "LOC_OS01G14860-cb001",
    "thermal shift delta Tm [°C]": 0.5
  },
  {
    "molecule": "CNC(=O)c1ccccc1Sc1ccc2c(/C=C/c3ccccn3)n[nH]c2c1 [Axitinib]",
    "tgt": "LOC_OS01G14860-cb001",
    "thermal shift delta Tm [°C]": 0.29
  }
]

I'd like to know its thermal shift delta Tm. The molecule in question is CCCCCCCCc1ccc(CCC(N)(CO)CO)cc1 [Fingolimod (FTY720) HCl] -1.24

I'd like to know its thermal shift delta Tm. The molecule in question is CO[C@H]1C[C@@H]2CC[C@@H](C)[C@@](O)(O2)C(=O)C(=O)N2CCCC[C@H]2C(=O)O[C@H]([C@H](C)C[C@@H]2CC[C@@H](OP(C)(C)=O)[C@H](OC)C2)CC(=O)[C@H](C)/C=C(\C)[C@@H](O)[C@@H](OC)C(=O)[C@H](C)C[C@H](C)/C=C/C=C/C=C/1C [Ridaforolimus (Deforolimus, MK-8669)] 0.16

I'd like to know its thermal shift delta Tm. The molecule in question is CC(C)(C)c1nc(-c2cccc(NS(=O)(=O)c3c(F)cccc3F)c2F)c(-c2ccnc(N)n2)s1 8.58

---

# System: LOC_OS02G14120-cb001
# measurement_description: thermal shift delta Tm vs DMSO control; higher = stronger stabilization (binding)
# particulars: 12.5 µM; protein concentration 2 µM
measured_property: thermal shift delta Tm (°C)
// units = °C; emit number, no label

Some solved entries appear below for comparison.
[
  {
    "compound": "Cc1cc(CS(=O)(=O)c2ccccc2)cc(OCc2ccc(CN3CCC[C@@H]3CO)cc2)c1",
    "thermal shift delta Tm / °C": -0.41
  },
  {
    "compound": "CO[C@H]1C[C@@H]2CC[C@@H](C)[C@@](O)(O2)C(=O)C(=O)N2CCCC[C@H]2C(=O)O[C@H]([C@H](C)C[C@@H]2CC[C@@H](OC(=O)C(C)(CO)CO)[C@H](OC)C2)CC(=O)[C@H](C)/C=C(\\C)[C@@H](O)[C@@H](OC)C(=O)[C@H](C)C[C@H](C)/C=C/C=C/C=C/1C",
    "thermal shift delta Tm / °C": 0.93
  },
  {
    "compound": "COc1cc2nccc(Oc3ccc(NC(=O)c4cn(C(C)C)c(=O)n(-c5ccc(F)cc5)c4=O)cc3F)c2cc1OC",
    "thermal shift delta Tm / °C": 8.24
  },
  {
    "compound": "COc1cc(Nc2ncc(F)c(Nc3ccc4c(n3)N(COP(=O)(O)O)C(=O)C(C)(C)O4)n2)cc(OC)c1OC [R788 (Fostamatinib) Disodium]",
    "thermal shift delta Tm / °C": 5.05
  },
  {
    "compound": "CC[C@H](CO)Nc1nc(NCc2ccccc2)c2ncn(C(C)C)c2n1 [Roscovitine (Seliciclib,CYC202)]",
    "thermal shift delta Tm / °C": 0.04
  },
  {
    "compound": "Cc1ccc(NC(=O)c2ccc(CN3CCN(C)CC3)cc2)cc1Nc1nccc(-c2cccnc2)n1 [Imatinib (STI571)]",
    "thermal shift delta Tm / °C": 1.22
  }
]

I'd like to know its thermal shift delta Tm. The compound in question is Cc1cc(Nc2ncnc3ccc(NC4=NC(C)(C)CO4)cc23)ccc1Oc1ccn2ncnc2c1 0.7

I'd like to know its thermal shift delta Tm. The compound in question is CN1c2ccccc2C(=O)Nc2cnc(Nc3ccc(N4CCC(O)CC4)cc3)nc21 11.1

I'd like to know its thermal shift delta Tm. The compound in question is COc1ccc(CCNCc2ccc(OCc3ccc(Cl)nc3)c(OC)c2)cc1OC 0.14
